Molecular target: aglycanase
Experiment: Aglycanase inhibition test (in vitro)
Conditions: aglycanase from bovine nasal septum cartilage culture, aglycan-containing polyacrylamide particles, 37° C. for 2.5 hours
measurement_kind: IC50 (nM)
// units = nM; emit number, no label

Some solved entries appear below for comparison.
CN([C@H](CCn1c(=O)[nH]c2ccsc2c1=O)C(=O)NO)S(=O)(=O)c1ccc(Oc2cccc(Cl)c2)cc1 [Example 140] = 2.2
CN(C(CCn1c(=O)[nH]c2ccsc2c1=O)C(=O)NO)S(=O)(=O)c1ccc(Oc2ccccc2)cc1 (racemic) [Example 42] = 5.4

Give recorded IC50. CN(C(CCn1c(=O)[nH]c2ccccc2c1=O)C(=O)NO)S(=O)(=O)c1ccc(Oc2ccccc2)cc1 (racemic) [Example 6]
7

Give recorded IC50. Cc1[nH]c(=O)n(CCC(C(=O)NO)N(C)S(=O)(=O)c2ccc(Oc3ccccc3)cc2)c(=O)c1C (racemic) [Example 18]
7.6

Give recorded IC50. CN([C@H](CCn1c(=O)[nH]c2ccccc2c1=O)C(=O)NO)S(=O)(=O)c1ccc(Oc2cccc(Cl)c2)cc1 [Example 139]
3.7

Give recorded IC50. CN([C@H](CCN1C(=O)c2ccccc2C1=O)C(=O)NO)S(=O)(=O)c1ccc(Oc2cccc(Cl)c2)cc1 [Example 141]
2.9

Give recorded IC50. CN([C@H](CCN1C(=O)c2ccccc2C1=O)C(=O)NO)S(=O)(=O)c1ccc(Oc2ccccc2)cc1 [Example 72]
4.9
